Examples of compounds with documented EC50 follow.
# experimental target: NS3-NS4 (Hepatitis C virus genotype 1a, UniProt P27958)
# Sequence (P27958 1027-1657): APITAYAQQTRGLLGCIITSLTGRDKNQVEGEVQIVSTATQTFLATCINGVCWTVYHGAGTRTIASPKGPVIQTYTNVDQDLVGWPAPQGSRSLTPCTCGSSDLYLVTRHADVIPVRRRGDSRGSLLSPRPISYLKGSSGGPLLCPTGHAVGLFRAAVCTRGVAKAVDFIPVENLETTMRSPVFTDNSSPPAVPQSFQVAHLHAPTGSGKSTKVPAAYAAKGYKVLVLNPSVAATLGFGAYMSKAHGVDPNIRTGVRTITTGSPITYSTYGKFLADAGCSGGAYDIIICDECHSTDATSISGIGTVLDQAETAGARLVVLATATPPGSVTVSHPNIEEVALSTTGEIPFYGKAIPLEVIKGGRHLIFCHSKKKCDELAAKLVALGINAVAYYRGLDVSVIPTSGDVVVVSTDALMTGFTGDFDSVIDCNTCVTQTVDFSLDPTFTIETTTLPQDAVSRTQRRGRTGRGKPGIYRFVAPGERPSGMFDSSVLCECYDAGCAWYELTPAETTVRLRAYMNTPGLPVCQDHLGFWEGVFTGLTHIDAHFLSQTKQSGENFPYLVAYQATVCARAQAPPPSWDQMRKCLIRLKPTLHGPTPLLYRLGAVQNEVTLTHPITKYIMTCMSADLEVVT
# Sequence (P27958 1658-1711): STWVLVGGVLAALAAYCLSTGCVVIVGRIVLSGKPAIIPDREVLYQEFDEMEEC
# experiment description: cell-based
# condition description: EC50, NS3-NS4 activity
property label: EC50

smiles_notation=CCC1(OC(=O)N[C@H]2CCCCC/C=C\[C@@H]3C[C@@]3(C(=O)NS(=O)(=O)C3CC3)NC(=O)[C@@H]3C[C@@H](OC(=O)N4Cc5cccc(F)c5C4)CN3C2=O)CC1 property_label=EC50 val="< 100 nM"
smiles_notation=CC(C)(C)OC(=O)N[C@H]1CCCCC[C@H]2C[C@H]2[C@@H]2C[C@@]2(C(=O)NS(=O)(=O)C2(C)CC2)NC(=O)[C@@H]2C[C@@H](OC(=O)N3Cc4cccc(F)c4C3)CN2C1=O property_label=EC50 val="< 100 nM"
smiles_notation=CC(C)(C)OC(=O)N[C@H]1CCCCC/C=C\[C@@H]2C[C@@]2(C(=O)NS(=O)(=O)c2cccc(Cl)c2)NC(=O)[C@@H]2C[C@@H](OC(=O)N3Cc4cccc(F)c4C3)CN2C1=O property_label=EC50 val="< 100 nM"
smiles_notation=CC(C)(C)OC(=O)N[C@H]1CCCCCCC[C@@H]2C[C@@]2(C(=O)NS(=O)(=O)c2cc(Cl)sc2Cl)NC(=O)[C@@H]2C[C@@H](OC(=O)N3Cc4cccc(F)c4C3)CN2C1=O property_label=EC50 val="< 100 nM"
smiles_notation=O=C(N[C@H]1CCCCC/C=C\[C@@H]2C[C@@]2(C(=O)NS(=O)(=O)c2ccc(Cl)cc2)NC(=O)[C@@H]2C[C@@H](OC(=O)N3Cc4cccc(F)c4C3)CN2C1=O)OC1CCC1 property_label=EC50 val="< 100 nM"
smiles_notation=CC1(COC(=O)N[C@H]2CCCCC/C=C\[C@@H]3C[C@@]3(C(=O)NS(=O)(=O)C3CC3)NC(=O)[C@@H]3C[C@@H](OC(=O)N4Cc5cccc(F)c5C4)CN3C2=O)CC1 property_label=EC50 val="< 100 nM"
smiles_notation=C=CCC1(S(=O)(=O)NC(=O)[C@@]23C[C@H]2CCCCCCC[C@H](NC(=O)OC(C)(C)C)C(=O)N2C[C@H](OC(=O)N4Cc5cccc(F)c5C4)C[C@H]2C(=O)N3)CC1 property_label=EC50 val="< 100 nM"
smiles_notation=CC(C)(C)OC(=O)N[C@H]1CCCCCCC[C@@H]2C[C@@]2(C(=O)NS(=O)(=O)c2ccc(Cl)cc2)NC(=O)[C@@H]2C[C@@H](OC(=O)N3Cc4cccc(F)c4C3)CN2C1=O property_label=EC50 val="< 100 nM"
smiles_notation=Cc1cccc(ONC(=O)[C@@]23C[C@H]2CCCCCCC[C@H](NC(=O)OC(C)(C)C)C(=O)N2C[C@H](OC(=O)N4Cc5cccc(F)c5C4)C[C@H]2C(=O)N3)c1 property_label=EC50 val="1000 to 10000 nM"
smiles_notation=O=C1N[C@]2(C(=O)NS(=O)(=O)C3CC3)C[C@H]2/C=C\CCCCC[C@H](Nc2nc(-c3nc4ccccc4s3)cs2)C(=O)N2C[C@H](OC(=O)N3Cc4cccc(F)c4C3)C[C@@H]12 property_label=EC50 val="< 100 nM"
smiles_notation=Cc1cc(S(=O)(=O)NC(=O)[C@@]23C[C@H]2/C=C\CCCCC[C@H](NC(=O)OC(C)(C)C)C(=O)N2C[C@H](OC(=O)N4Cc5cccc(F)c5C4)C[C@H]2C(=O)N3)oc1C property_label=EC50 val="100 to 1000 nM"
smiles_notation=CC(C)(C)OC(=O)N[C@H]1CCCCC/C=C\[C@@H]2C[C@@]2(C(=O)NS(=O)(=O)c2cccc(C(F)(F)F)c2)NC(=O)[C@@H]2C[C@@H](OC(=O)N3Cc4cccc(F)c4C3)CN2C1=O property_label=EC50 val="< 100 nM"
smiles_notation=CC(C)(C)COC(=O)N[C@H]1CCCCC/C=C\[C@@H]2C[C@@]2(C(=O)NS(=O)(=O)c2ccc(Cl)cc2)NC(=O)[C@@H]2C[C@@H](OC(=O)N3Cc4cccc(F)c4C3)CN2C1=O property_label=EC50 val="< 100 nM"
smiles_notation=C=CCC1(S(=O)(=O)NC(=O)[C@@]23C[C@H]2/C=C\CCCCC[C@H](NC(=O)OC(C)(C)C)C(=O)N2C[C@H](OC(=O)N4Cc5cccc(F)c5C4)C[C@H]2C(=O)N3)CC1 property_label=EC50 val="< 100 nM"
smiles_notation=CC(C)(C)O[C@@H]1C[C@H]2C(=O)N[C@]3(C(=O)NS(=O)(=O)C4CC4)C[C@H]3/C=C\CCCCC[C@H](Nc3ncc(-c4ccccc4)s3)C(=O)N2C1 property_label=EC50 val="100 to 1000 nM"
smiles_notation=Cc1cccc(ONC(=O)[C@@]23C[C@H]2/C=C\CCCCC[C@H](NC(=O)OC(C)(C)C)C(=O)N2C[C@H](OC(=O)N4Cc5cccc(F)c5C4)C[C@H]2C(=O)N3)c1C property_label=EC50 val="1000 to 10000 nM"
smiles_notation=Cc1csc(N[C@H]2CCCCC/C=C\[C@@H]3C[C@@]3(C(=O)NS(=O)(=O)C3CC3)NC(=O)[C@@H]3C[C@@H](OC(=O)N4Cc5cccc(F)c5C4)CN3C2=O)n1 property_label=EC50 val="< 100 nM"
smiles_notation=CC(C)(C)OC(=O)N[C@H]1CCCCC/C=C\[C@@H]2C[C@@]2(C(=O)NS(=O)(=O)c2ccc(Cl)cc2Cl)NC(=O)[C@@H]2C[C@@H](OC(=O)N3Cc4cccc(F)c4C3)CN2C1=O property_label=EC50 val="< 100 nM"
smiles_notation=O=C1N[C@]2(C(=O)NS(=O)(=O)C3CC3)C[C@H]2/C=C\CCCCC[C@H](Nc2nc(-c3ccc(C(F)(F)F)cc3)cs2)C(=O)N2C[C@H](OC(=O)N3Cc4cccc(F)c4C3)C[C@@H]12 property_label=EC50 val="< 100 nM"

* * *

# experiment description: Single ascending dose study, fasted and fed: safety and non-compartmental plasma PK
# Type: in vivo, healthy volunteers (human)
# condition description: human, plasma, oral, 1600 mg, Harmonic Mean of 10 subjects; single 1600 mg dose, Fasted; read-out: AUC0-inf
property label: AUC0-inf (ng·h/mL)

smiles_notation=CC(C)(C)OC(=O)N[C@H]1CCCCC/C=C\[C@@H]2C[C@@]2(C(=O)NS(=O)(=O)C2CC2)NC(=O)[C@@H]2C[C@@H](OC(=O)N3Cc4cccc(F)c4C3)CN2C1=O val=639

* * *

# experimental target: NS3-NS4 (Hepatitis C virus genotype 1a, UniProt P27958)
# experiment description: cell-based
# condition description: EC50, NS3-NS4 activity
pEC50: −log10 of the molar value.
Examples of compounds with documented pEC50 follow.
property label: pEC50

compound="CC(C)(C)OC(=O)N[C@H]1CCCCC/C=C\\[C@@H]2C[C@@]2(C(=O)NS(=O)(=O)Cc2ccc(C(F)(F)F)cc2)NC(=O)[C@@H]2C[C@@H](OC(=O)N3Cc4cccc(F)c4C3)CN2C1=O [Compound 519]" val="6.00 to 7.00"
compound="O=C(N[C@H]1CCCCC/C=C\\[C@@H]2C[C@@]2(C(=O)NS(=O)(=O)C2CC2)NC(=O)[C@@H]2C[C@@H](OC(=O)N3Cc4cccc(Cl)c4C3)CN2C1=O)OC1CCOCC1 [Compound 411]" val="> 7.00"
compound="CC(C)(C)OC(=O)N[C@H]1CCCCCCC[C@@H]2C[C@@]2(C(=O)NOc2cccc(F)c2)NC(=O)[C@@H]2C[C@@H](OC(=O)N3Cc4cccc(F)c4C3)CN2C1=O [Compound 810]" val="5.00 to 6.00"
compound="Cc1ccc(C)c(ONC(=O)[C@@]23C[C@H]2/C=C\\CCCCC[C@H](NC(=O)OC(C)(C)C)C(=O)N2C[C@H](OC(=O)N4Cc5cccc(F)c5C4)C[C@H]2C(=O)N3)c1 [Compound 713]" val="5.00 to 6.00"
compound="Cc1ccccc1S(=O)(=O)NC(=O)[C@@]12C[C@H]1CCCCCCC[C@H](NC(=O)OC(C)(C)C)C(=O)N1C[C@H](OC(=O)N3Cc4cccc(F)c4C3)C[C@H]1C(=O)N2 [Compound 602]" val="> 7.00"

* * *

pIC50: −log10 of the molar value.
pIC50 values recorded for NS3-NS4 (Hepatitis C virus genotype 1a)
property label: pIC50

molecule="CC(C)(C)OC(=O)N[C@H]1CCCCCCC[C@@H]2C[C@@]2(C(=O)NS(=O)(=O)Cc2c(F)cccc2F)NC(=O)[C@@H]2C[C@@H](OC(=O)N3Cc4cccc(F)c4C3)CN2C1=O [Compound 621]" experimental_target="NS3-NS4 (Hepatitis C virus genotype 1a)" val="> 7.00"
molecule="Cc1ccc(CS(=O)(=O)NC(=O)[C@@]23C[C@H]2CCCCCCC[C@H](NC(=O)OC(C)(C)C)C(=O)N2C[C@H](OC(=O)N4Cc5cccc(F)c5C4)C[C@H]2C(=O)N3)cc1C [Compound 630]" experimental_target="NS3-NS4 (Hepatitis C virus genotype 1a)" val="> 7.00"
molecule="CC(C)(C)OC(=O)N[C@H]1CCCCC/C=C\\[C@@H]2C[C@@]2(C(=O)NS(=O)(=O)Cc2ccc(C(F)(F)F)cc2)NC(=O)[C@@H]2C[C@@H](OC(=O)N3Cc4cccc(F)c4C3)CN2C1=O [Compound 519]" experimental_target="NS3-NS4 (Hepatitis C virus genotype 1a)" val="> 7.00"
